The reported numbers originate from the supplement of paper PMC10567573.

B1: MYL5 (parent)
chain: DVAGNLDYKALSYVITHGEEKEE

variants of: B1; test: protein stability index of a GFP-peptide fusion (GPS, HEK-293T) (PSI 1-6); higher = more stable; conditions: c terminus: native;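 further: lentivirally expressed fusions sorted by FACS into six bins by GFP to DsRed ratio, PSI derived from sequencing read proportions per bin multiplied by bin number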
Categories are defined by ranges of protein stability index, namely LOW (below 2), MEDIUM (2 to below 3), HIGH (3 or more)

Below are worked cases with known answers.
V14N
HIGH
E20Q
MEDIUM

Read the next record carefully.
Query: // return the class label for E19T
Response: HIGH
